System: NCI/ADR-RES
PROTOCOL TEXT: NCI tumour cell line growth inhibition, 48 h
Active and inactive are the calls of the source. No stated cut-off is given here; in the data, active = GI50 up to about 1.1 µM and inactive = higher.
Outcomes you can answer with include only these: class 1 for active, class 0 for inactive

Solved entries:
Nc1nc(Sc2ccc([N+](=O)[O-])c3nonc23)c2nc[nH]c2n1
class 1
Cc1ccc(C2(c3ccc(C)cc3)SC(=C(C#N)C#N)c3ccccc32)cc1
class 0
S=C1Cc2c([nH]c3ccccc23)-c2ccccc2N1
class 0
C[C@]12CC[C@@H]3c4ccc(O)cc4CC[C@H]3[C@@H]1C/C(=C\c1ccncc1)[C@@H]2O
class 0

Moving on to the next molecule.
-- ask Please state the recorded outcome for this molecule: O=C(O)C1CCc2ccc3ccccc3c2C1c1cccc2ccccc12 (stereo unspecified)
-- reply class 0

Origin of the recorded values: ChEMBL document CHEMBL1201862
